Where do these numbers come from? They come from PubChem BioAssay (NCI).

Below, each entry is listed alongside its reported TGI.
system: NCI-H460 lung; assay: NCI tumour cell line growth inhibition, 48 h

Answered cases to consult:
INSERT INTO assay_data (molecule, result) VALUES
  ('COc1ccc(CC2c3cc(OC)c(OC)c(OC)c3CC[N+]2(C)C)cc1Oc1ccc(CC2c3cc4c(c(OC)c3CC[N+]2(C)C)OCO4)cc1 (stereo not given)', '> 100 µM'),
  ('NC(=O)NC(=O)CCC(NS(=O)(=O)c1ccccc1)C(=O)NC(N)=O (stereo not given)', '> 100 µM'),
  ('CCSC1=N/C(=C\c2ccco2)C(NN)=N1', '> 50 µM'),
  ('O=C1Nc2cc(Cl)ccc2N=CC1NC(=O)C(c1ccccc1)c1ccccc1Cl (stereo not given)', '> 100 µM'),
  ('CCN1CCN(c2nc3ccccc3nc2C(=O)c2ccc(OC)cc2)CC1', '> 100 µM');

Supply reported TGI belonging to this molecule: COc1ccc(/C=C/C(=O)C(C)(C)CN2CCCCC2)cc1
43.3 µM
